experiment: 14C assay with IPTG-induced recombinant E. coli cells: 14CO2 captured from [14C]-carboxyl-labeled dicamba; settings: induced recombinant E. coli cells, [14C]-carboxyl-labeled dicamba, 14CO2 capture
RESULT_TYPE: Dicamba Decarboxylase Activity

{"columns": ["MOLECULE", "RESULT"],
 "data": [
  ["82 (protein, listed as Rhodopseudomonas palustris) MAQNETPVIAIEEHYWDPEMVARFPAGENASPFSTLLTELGDVRLRAMDEAGIDVQVLSHGAPAAQKLPPDVAPELTRRVNDRLAEACARFPNRFAAFAALPTPAPEAAARELERCVRDLGFKGAMIHGLTNGLFIDDKRFWPIFEVAEKLDVPIYLHPSVPHADVTRYYYDDYAREFPTVIRPAWGFTVETATQAIRLILSRALESYPRLQIILGHLGETLPFLLWRINQALARPGQTPLDFRKQFCDHFHVTTSGFFSTPALICTMLELGIDRIMFAVDYPYVVNRDGTDWVQQLQISPDDKRKLVGGNARRLLKL", "Low"]
]}
